Below, each entry is listed with its recorded furin cleavage Z-score.
measuredTarget: furin, P09958;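 note: purified furin at 1:10 enzyme:substrate in 50 mM HEPES pH 7.5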
Sequence (P09958 whole entry): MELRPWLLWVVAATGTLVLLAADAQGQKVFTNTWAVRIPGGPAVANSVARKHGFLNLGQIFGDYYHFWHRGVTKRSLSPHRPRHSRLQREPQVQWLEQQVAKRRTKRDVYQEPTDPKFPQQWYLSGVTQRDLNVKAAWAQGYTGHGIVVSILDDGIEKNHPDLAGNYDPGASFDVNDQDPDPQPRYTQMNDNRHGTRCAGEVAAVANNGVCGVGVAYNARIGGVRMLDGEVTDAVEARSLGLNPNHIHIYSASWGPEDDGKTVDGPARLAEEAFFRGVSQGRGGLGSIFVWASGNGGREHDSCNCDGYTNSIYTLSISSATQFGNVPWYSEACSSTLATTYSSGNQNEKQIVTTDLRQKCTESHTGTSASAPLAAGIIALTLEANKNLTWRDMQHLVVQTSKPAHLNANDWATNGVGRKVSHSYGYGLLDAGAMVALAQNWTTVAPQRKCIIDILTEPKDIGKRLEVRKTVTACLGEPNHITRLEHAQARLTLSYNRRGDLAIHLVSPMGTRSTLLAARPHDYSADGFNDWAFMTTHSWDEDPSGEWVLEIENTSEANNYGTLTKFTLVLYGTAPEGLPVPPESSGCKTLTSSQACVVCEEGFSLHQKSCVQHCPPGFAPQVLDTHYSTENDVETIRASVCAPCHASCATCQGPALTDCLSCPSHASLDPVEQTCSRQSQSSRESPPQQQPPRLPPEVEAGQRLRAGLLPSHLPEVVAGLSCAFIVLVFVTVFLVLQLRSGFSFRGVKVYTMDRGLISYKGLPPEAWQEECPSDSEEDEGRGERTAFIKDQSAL
protocolNotes: furin cleavage Z-score vs untreated control; higher = more cleavage, active = 3.5 or more, inactive = 1 or less, 8 variable residues between constant flanks
conditionNotes: 30 min
Some of the results follow. The true hit rate is not given.

sequenceContent | furin cleavage Z-score
CADEECSQHLAGNASASA [HC1671] | -0.0902
CARRRRSIQNAGNASASA [FS-3066] | 7.21
CAPPCKPLLRAGNASASA [HC1228] | 0.118
CAIKKRRRRRAGNASASA [FS-33] | 6.1
CAVSCQRGYKAGNASASA [HC1165] | 1.1
CAIKKRFQTTAGNASASA [FS-1881] | -0.368
CACQRGYKGVAGNASASA [HC1166] | -2.51
